Hey, just so you know, these numbers are from BindingDB's records for doi:10.7270/Q27W69N8.

molecular target: M17 leucyl aminopeptidase (Plasmodium falciparum (isolate 3D7), UniProt Q8IL11); experiment: P. falciparum M17LAP inhibitors, primary screen, biochemical, fluorogenic H-Leu-NHMec substrate, 1536-well (AID 1619)
Sequence (Q8IL11 whole entry): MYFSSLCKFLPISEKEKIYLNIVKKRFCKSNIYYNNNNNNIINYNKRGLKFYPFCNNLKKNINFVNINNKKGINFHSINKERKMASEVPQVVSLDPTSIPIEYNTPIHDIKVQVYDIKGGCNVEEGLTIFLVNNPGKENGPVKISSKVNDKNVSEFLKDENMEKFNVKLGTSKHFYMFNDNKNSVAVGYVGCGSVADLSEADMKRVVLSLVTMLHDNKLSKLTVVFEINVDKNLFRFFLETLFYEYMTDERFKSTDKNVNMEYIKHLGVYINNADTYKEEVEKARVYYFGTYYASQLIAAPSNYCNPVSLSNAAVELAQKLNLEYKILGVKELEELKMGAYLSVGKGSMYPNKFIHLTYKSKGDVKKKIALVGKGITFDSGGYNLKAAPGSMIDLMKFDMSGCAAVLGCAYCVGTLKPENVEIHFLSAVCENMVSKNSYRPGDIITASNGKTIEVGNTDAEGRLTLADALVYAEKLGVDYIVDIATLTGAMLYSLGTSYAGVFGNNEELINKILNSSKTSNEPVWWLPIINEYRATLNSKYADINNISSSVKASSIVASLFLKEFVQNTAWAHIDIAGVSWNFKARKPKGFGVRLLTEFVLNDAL
Endpoint name: pIC50
Field pIC50 (float): negative decimal logarithm of the concentration in molar.

Please review the entries below; each comes with its answer.
Compound	Experimental value
CN1C(=O)/C(=C/c2ccc(-c3ccccc3[N+](=O)[O-])o2)S/C1=N/c1ccc(Cl)c(C(=O)O)c1	5.20
Cc1ccc(-c2ccc([CH+][N-]Nc3nc(O)c(CC(=O)O)s3)o2)c([N+](=O)[O-])c1 [SMR000135699]	4.00
COc1cccc(-c2n[nH]c3c2C(c2ccoc2)C(C#N)C(=N)O3)c1 (centres undefined) [MLS000558215]	4.11

Alright, here's another compound for you.
Sample `Cc1cc(CN=Nc2ccc([N+](=O)[O-])cn2)c(C)n1-c1ccc(C(=O)O)cc1` — what was its pIC50?
4.90
